Source of measurements: ChEMBL document CHEMBL1156088

tested on: Staphylococcus aureus; experiment: Antibacterial activity against methicillin-resistant Staphylococcus aureus 562 by NCCLS method; format: functional
Please provide measured MIC for the entries that follow.
One number for each entry, in µg/mL.

smiles.input	MIC (µg/mL)
NC(=S)NC[C@H]1CN(c2ccc(N3CCN(Cc4ccc([N+](=O)[O-])o4)CC3)c(F)c2)C(=O)O1	1
COC(=O)NC[C@H]1CN(c2ccc(N3CCN(Cc4ccc([N+](=O)[O-])o4)CC3)c(F)c2)C(=O)O1	2
O=C(NC[C@H]1CN(c2ccc(N3CCN(Cc4ccc([N+](=O)[O-])o4)CC3)c(F)c2)C(=O)O1)c1ccc([N+](=O)[O-])o1	1
O=C(CF)NC[C@H]1CN(c2ccc(N3CCN(Cc4ccc([N+](=O)[O-])o4)CC3)c(F)c2)C(=O)O1	2

In the following, a different molecule is considered.
// map `O=C(NC[C@H]1CN(c2ccc(N3CCN(Cc4ccc([N+](=O)[O-])o4)CC3)c(F)c2)C(=O)O1)C(F)F` to recorded MIC (system: Staphylococcus aureus)
2

* * *

system: Enterococcus faecalis; test: Antibacterial activity against Enterococcus faecalis ATCC 29212 by NCCLS method; format: functional
outcome.measure: MIC (µg/mL)
Answers are plain numbers, in µg/mL.

compound	endpoint.unit	readout.value
CC(=S)NC[C@H]1CN(c2ccc(N3CCN(Cc4ccc([N+](=O)[O-])o4)CC3)c(F)c2)C(=O)O1	µg/mL	1
O=C(NC[C@H]1CN(c2ccc(N3CCN(Cc4ccc([N+](=O)[O-])o4)CC3)c(F)c2)C(=O)O1)C(F)F	µg/mL	2
O=C(CF)NC[C@H]1CN(c2ccc(N3CCN(Cc4ccc([N+](=O)[O-])o4)CC3)c(F)c2)C(=O)O1	µg/mL	4

Looking for the measured MIC of CC(=O)NC[C@H]1CN(c2ccc(N3CCN(Cc4ccc([N+](=O)[O-])o4)CC3)c(F)c2)C(=O)O1 [RANBEZOLID] , can you help?
2
